A collection of variants and their measured protein stability index
B1: SCARA5 (parent)
chain: VTEDLRLKDWEHSIALRNISLAKG

Variants of: B1
Experiment: protein stability index of a GFP-peptide fusion (GPS, HEK-293T) (PSI 1-6); higher = more stable;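 also: lentivirally expressed fusions sorted by FACS into six bins by GFP to DsRed ratio, PSI derived from sequencing read proportions per bin multiplied by bin number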
Conditions: c terminus: a fixed tail appended
Answer using only a numeral; do not append any unit.

Documented protein stability index of L21N : 4.08

Now, please, on to the next variant.
Short answer for E11D : protein stability index was 3.33
